- TEST: Hepatic extraction ratio in rat liver microsomes at 1 uM measured after 60 mins in presence of NADPH by LC-MS/MS analysis
- Assay type: ADME, microsome
- CONDITIONS: read-out: ERH
REPORTED PROPERTY: hepatic extraction ratio at 1 h, 1 µM
Note: the reply should be a number with no unit written.

Could you share which hepatic extraction ratio at 1 h, 1 µM value was measured for Cc1cc(-c2c(Cl)cncc2OC(F)F)cc2c1NC(=O)C2 ? 0.4

Could you share which hepatic extraction ratio at 1 h, 1 µM value was measured for Cc1cc(-c2c(Cl)cccc2OC(F)(F)F)cc2c1NC(=O)C2 ? 0.4

Could you share which hepatic extraction ratio at 1 h, 1 µM value was measured for N#CCc1cccc(Cl)c1-c1ccc2[nH]c(=O)[nH]c2c1 ? 0.6

Could you share which hepatic extraction ratio at 1 h, 1 µM value was measured for Cc1cc(-c2c(Cl)cncc2OC(F)(F)F)cc2c1NC(=O)C2 ? 0.5

Could you share which hepatic extraction ratio at 1 h, 1 µM value was measured for O=c1[nH]c2ccc(-c3c(Cl)cccc3C3CC3)cc2[nH]1 ? 0.5

Could you share which hepatic extraction ratio at 1 h, 1 µM value was measured for O=c1[nH]c2ccc(-c3c(Cl)cccc3Cl)cc2[nH]1 ? 0.3

Could you share which hepatic extraction ratio at 1 h, 1 µM value was measured for Cc1cccc(C)c1-c1ccc2[nH]c(=O)[nH]c2c1 ? 0.5

Could you share which hepatic extraction ratio at 1 h, 1 µM value was measured for COc1cccc(Cl)c1-c1ccc2[nH]c(=O)[nH]c2c1 ? 0.6

Could you share which hepatic extraction ratio at 1 h, 1 µM value was measured for Cc1cccc(Cl)c1-c1ccc2[nH]c(=O)[nH]c2c1 ? 0.6
